molecular target: T1, rat glucagon receptor (rat, UniProt P30082 28-485); test: competition with [125I]glucagon, SPA, membranes of 293HEK cells expressing the receptor
T1 construct: Cloned receptor expressed in 293HEK cells; also called rat GluR; rat GlucR
T1 sequence (P30082 28-485): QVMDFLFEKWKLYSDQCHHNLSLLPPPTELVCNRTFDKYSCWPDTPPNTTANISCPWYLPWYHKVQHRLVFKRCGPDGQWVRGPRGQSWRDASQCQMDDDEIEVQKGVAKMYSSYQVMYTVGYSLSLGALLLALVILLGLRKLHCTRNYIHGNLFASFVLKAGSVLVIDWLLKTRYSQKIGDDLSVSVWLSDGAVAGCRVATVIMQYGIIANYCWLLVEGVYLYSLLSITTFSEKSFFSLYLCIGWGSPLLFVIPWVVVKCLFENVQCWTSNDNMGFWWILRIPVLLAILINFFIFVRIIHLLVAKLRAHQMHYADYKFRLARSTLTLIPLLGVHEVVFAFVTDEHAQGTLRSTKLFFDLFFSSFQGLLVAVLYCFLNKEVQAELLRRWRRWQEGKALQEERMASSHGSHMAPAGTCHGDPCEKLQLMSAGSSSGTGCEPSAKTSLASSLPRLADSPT
assay-readout: Ki

Record summary for Fab fragment of antibody example 4 (Fab4) (Fab, V domains shown, Expressed in E. coli; Fab = VL+CL and VH+CH1 (Fc absent); not shown: His tag) VH: QVQLQESGPGLVKPSETLSLTCTVSGDDITSGYHDWIRQPPGKGLEWIGYISYSGSTYYSPSLKSRVTISVDTSKNQFSLKLSSVTAADTAVYYCARPPGYYGFGPYALDYWGQGTLVTVSS VL: DIQMTQSPSSLSASVGDRVTITCSASSSVSYIHWYQQKPGKAPKLLIYTTSYLAHGVPSRFSGSGSGTDFTLTISSLQPEDFATYYCQQRSTLPPTFGGGTKVEIKR : reported Ki = < 50 nM

Record summary for Fab fragment of antibody example 7 (Fab, V domains shown, Expressed in E. coli; Fab = VL+CL and VH+CH1 (Fc absent); also called Fab of Ab7; not shown: His tag) VH: QVQLQESGPGLVKPSETLSLTCTVSGDDITSGYHEWIRQPPGKGLEWIGYISYSGSTSYSPSLKSRVTISVDTSKNQFSLKLSSVTAADTAVYYCARPPAYYGFGPYALDYWGQGTLVTVSS VL: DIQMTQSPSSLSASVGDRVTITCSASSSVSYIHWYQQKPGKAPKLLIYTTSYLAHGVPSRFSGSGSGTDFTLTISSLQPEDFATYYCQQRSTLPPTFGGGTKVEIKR : reported Ki = < 50 nM

Record summary for Antibody of example 3 (Ab3) (antibody, human IgG4 S228P, kappa, F234A L235A, V domains shown, Humanized full antibody with kappa light chain and modified human IgG4 Fc) VH: QVQLQESGPGLVKPSETLSLTCTVSGDDITSGYWDWIRQPPGKGLEWIGYISYSGSTYYSPSLKSRVTISVDTSKNQFSLKLSSVTAADTAVYYCARPPGYYGFGPYALDYWGQGTLVTVSS VL: DIQMTQSPSSLSASVGDRVTITCSASSSVSYIHWYQQKPGKAPKLLIYTTSYLAHGVPSRFSGSGSGTDFTLTISSLQPEDFATYYCLQRSTLPPTFGGGTKVEIKR : reported Ki = < 50 nM
